Please respond with reported IC50 for every item in the list.
Biological target: hTSHR (Homo sapiens, UniProt P16473)
Construct: expressed in transfected cells
Sequence (P16473 21-764): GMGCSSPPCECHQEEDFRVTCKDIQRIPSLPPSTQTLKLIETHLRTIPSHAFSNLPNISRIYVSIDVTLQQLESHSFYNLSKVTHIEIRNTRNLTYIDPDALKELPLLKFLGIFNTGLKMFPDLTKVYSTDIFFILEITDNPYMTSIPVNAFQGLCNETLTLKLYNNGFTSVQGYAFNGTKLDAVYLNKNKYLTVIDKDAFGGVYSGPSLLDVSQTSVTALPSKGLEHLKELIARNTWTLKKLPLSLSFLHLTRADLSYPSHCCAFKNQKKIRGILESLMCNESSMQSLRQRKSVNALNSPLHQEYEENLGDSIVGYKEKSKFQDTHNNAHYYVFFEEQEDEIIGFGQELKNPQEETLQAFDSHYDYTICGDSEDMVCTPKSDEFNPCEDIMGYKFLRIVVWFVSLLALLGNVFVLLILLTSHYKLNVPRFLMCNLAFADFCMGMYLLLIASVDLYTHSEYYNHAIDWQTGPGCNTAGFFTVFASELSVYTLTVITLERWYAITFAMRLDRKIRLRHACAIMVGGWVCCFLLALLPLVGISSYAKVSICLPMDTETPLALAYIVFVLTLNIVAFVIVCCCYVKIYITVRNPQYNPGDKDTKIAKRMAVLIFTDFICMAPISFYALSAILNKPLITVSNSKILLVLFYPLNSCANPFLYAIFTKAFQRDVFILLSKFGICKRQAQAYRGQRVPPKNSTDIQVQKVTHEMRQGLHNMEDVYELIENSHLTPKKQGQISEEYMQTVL
Assay: hTSHR TR-FRET cAMP Assay (inhibition of M22-stimulated cAMP production)
Type: cell-based
Conditions: Expi293F Inducible cells stably expressing hTSHR; cAMP HTRF; stimulated with EC80 of anti-TSHR antibody M22; 15 min compound preincubation, 30 min at 37° C.; read-out: Activity (IC50 bins)

Asked: Name the recorded IC50 for `C[C@@H](c1cccc(C(F)(F)F)c1)N1C(=O)CCc2cc(NC(=O)NC(C)(C)C)ccc21` .
Given back: < 0.1 µM

Asked: Name the recorded IC50 for `COc1cccc([C@H](C)n2c(=O)cnc3cc(NC(=O)NC(C)(C)C)ccc32)n1` .
Given back: 0.1 to 1 µM

Asked: Name the recorded IC50 for `C[C@@H](c1cccc(OC(F)(F)F)c1)n1c(=O)cnc2cc(NC(=O)NC3(C(F)(F)F)COC3)ccc21` .
Given back: 0.1 to 1 µM

Asked: Name the recorded IC50 for `C[C@H]1Oc2cc(NC(=O)NC(C)(C)C)ccc2N(Cc2cc(Cl)ccc2C#N)C1=O` .
Given back: 0.1 to 1 µM

Asked: Name the recorded IC50 for `CC[C@H]1Oc2cc(NC(=O)NC(C)(C)C)ccc2N(Cc2ccccc2)C1=O` .
Given back: > 1 µM

Asked: Name the recorded IC50 for `Cc1cc2c(cc1NC(=O)NC(C)(C)C)O[C@H](C)C(=O)N2Cc1ccccc1` .
Given back: 0.1 to 1 µM

Asked: Name the recorded IC50 for `CC(C)(C)NC(=O)Nc1ccc2c(c1)ncc(=O)n2Cc1cccc(CCC(F)(F)F)c1` .
Given back: 0.1 to 1 µM

Asked: Name the recorded IC50 for CC(c1cc(C(F)(F)F)ccn1)n1c(=O)cnc2cc(NC(=O)NC(C)(C)C)ccc21 (stereo not shown) .
Given back: > 1 µM

Asked: Name the recorded IC50 for CC(c1ccccc1)N1C(=O)CCc2cc(NC(=O)NC(C)(C)C)ccc21 (stereo not shown) .
Given back: < 0.1 µM

Asked: Name the recorded IC50 for `C[C@@H](c1cccc(OC(F)(F)F)n1)n1c(=O)cnc2cc(NC(=O)CCc3cccc(C(F)(F)F)c3)ccc21` .
Given back: 0.1 to 1 µM

Asked: Name the recorded IC50 for `C[C@H]1Oc2c(cc(C(F)(F)F)c(NC(=O)NC(C)(C)C)c2F)N(Cc2cccc(C(F)F)c2)C1=O` .
Given back: 0.1 to 1 µM

Asked: Name the recorded IC50 for `C[C@H]1Oc2nc(NC(=O)NC(C)(C)C)c(Cl)cc2N(Cc2ccccc2)C1=O` .
Given back: 0.1 to 1 µM

Asked: Name the recorded IC50 for `CC1(C)CCN(C(=O)Nc2ccc3c(c2)ncc(=O)n3Cc2ccccc2)C1` .
Given back: > 1 µM

Asked: Name the recorded IC50 for `CC[C@@H]1Oc2cc(NC(=O)NC(C)(C)C)ccc2N(Cc2ccccc2)C1=O` .
Given back: > 1 µM

Asked: Name the recorded IC50 for `C[C@@H]1Oc2cc(NC(=O)NC(C)(C)C)ccc2N([C@@H](C)c2ccccc2)C1=O` .
Given back: 0.1 to 1 µM

Asked: Name the recorded IC50 for `CC(C)(C)NC(=O)Nc1ccc2c(c1)OCC(=O)N2Cc1cccc([C@H](O)C(F)(F)F)c1` .
Given back: 0.1 to 1 µM
